Reported values of RP-LC retention time for individual entries
TEST PROTOCOL: gradient 5% acetonitrile 3 min, to 50% in 2 min, to 85% in 15 min, held 3 min, 100 µL/min
TEST CONTEXT: column: Zorbax Extend-C18 2.1 x 50 mm; eluents: water / acetonitrile, 0.1% formic acid

COMPOUND: COc1ccc(Cl)cc1NC(=O)CN1CCN(c2ccccc2F)CC1
UNIT OF MEASURE: s
RP-LC retention time: 709

COMPOUND: CCCN(CC(=O)N1CCc2sccc2C1COc1ccccc1OC)C(=O)C1CC1 (centres undefined)
UNIT OF MEASURE: s
RP-LC retention time: 922

COMPOUND: CCCNC(=O)Nc1cccc(-c2noc(-c3ccc4c(c3)OCO4)n2)c1
UNIT OF MEASURE: s
RP-LC retention time: 941

COMPOUND: CCOc1ccc(C2=NC3(CCN(C(C)C)CC3)NC(c3cc(Br)ccc3O)C2)cc1 (centres undefined)
UNIT OF MEASURE: s
RP-LC retention time: 654

----------
TEST PROTOCOL: gradient 5% acetonitrile 3 min, to 50% in 2 min, to 85% in 15 min, held 3 min, 100 µL/min
TEST CONTEXT: column: Zorbax Extend-C18 2.1 x 50 mm; eluents: water / acetonitrile, 0.1% formic acid
Reported values of RP-LC retention time for individual entries

COMPOUND: CCc1ccc(-n2c(CN3CCN(C(=O)NCCCOC)CC3)nc3cccnc32)cc1
UNIT OF MEASURE: s
RP-LC retention time: 634
--
COMPOUND: Oc1c(C(c2ccccn2)N2CCN(c3ccccc3F)CC2)ccc2cccnc12 (configuration not stated)
UNIT OF MEASURE: s
RP-LC retention time: 567
--
COMPOUND: Cc1cc(C)cc(N2C(=O)CN(CC(C)C)[C@H]3CS(=O)(=O)C[C@H]32)c1
UNIT OF MEASURE: s
RP-LC retention time: 619
--
COMPOUND: CCOC(=O)C1=C(CN2CCC(Cc3ccccc3)CC2)NC(=O)NC1c1ccco1 (configuration not stated)
UNIT OF MEASURE: s
RP-LC retention time: 708
--
COMPOUND: O=C(Nc1ccc(F)cc1Cl)c1c(O)c2cccnc2n(Cc2ccccc2)c1=O
UNIT OF MEASURE: s
RP-LC retention time: 1240
--
COMPOUND: COCCn1c(CCCC(=O)N2CCN(c3ncccn3)CC2)nc2cccnc21
UNIT OF MEASURE: s
RP-LC retention time: 596
--
COMPOUND: CCS(=O)(=O)Nc1ccc(S(=O)(=O)Nc2nc(C)cc(C)n2)cc1
UNIT OF MEASURE: s
RP-LC retention time: 598

----------
TEST PROTOCOL: gradient 5% acetonitrile 3 min, to 50% in 2 min, to 85% in 15 min, held 3 min, 100 µL/min
TEST CONTEXT: column: Zorbax Extend-C18 2.1 x 50 mm; eluents: water / acetonitrile, 0.1% formic acid

MOLECULE: c1ccc(-c2nnc3sc(-c4ccc5c(c4)OCO5)nn23)nc1
RP-LC retention time / s: 759
//
MOLECULE: CCOCCCNCc1ccc(-c2ccc(OC)c(Cl)c2)o1
RP-LC retention time / s: 705
//
MOLECULE: CCN1CCn2cc(S(=O)(=O)Nc3cc(C)ccc3F)cc2C1=O
RP-LC retention time / s: 751
//
MOLECULE: O=C(Nc1ccc2c(c1)CN(C(=O)C1COc3ccccc3O1)CCO2)C1CC1 (stereo unspecified)
RP-LC retention time / s: 823
//
MOLECULE: Nc1ncnc2c1ncn2C1CCCO1 (stereo unspecified)
RP-LC retention time / s: 580
//
MOLECULE: O=C(CCOc1ccccc1)NCc1ccccc1
RP-LC retention time / s: 759
